# Tested on: 126254-015-R-J1-PDC complex spheroid growth, % test/control
# Assay name: Anticancer human tumor 126254-015-R-J1-PDC patient-derived soft tissue sarcoma cell line growth inhibition [Asc]
# Measurement setup: curve of first compound; second compound 0.03 µM
Observation type: IC50

State recorded IC50 for all listed compounds.
1. CNC(C)C(=O)NC1CN(S(=O)(=O)c2cccc(S(=O)(=O)N3CCC4CCC(C(=O)NC(c5ccccc5)c5ccccc5)N4C(=O)C(NC(=O)C(C)NC)C3)c2)CCC2CCC(C(=O)NC(c3ccccc3)c3ccccc3)N2C1=O (centres undefined) + CCN1C(C(=O)NC23CCC(C(=O)O)(CC2)CC3)C(c2cccc(Cl)c2F)C2(C(=O)Nc3cc(Cl)ccc32)C12CCCCC2
2. Cn1ncnc1[C@H]1c2n[nH]c(=O)c3cc(F)cc(c23)N[C@@H]1c1ccc(F)cc1 + CCN1C(C(=O)NC23CCC(C(=O)O)(CC2)CC3)C(c2cccc(Cl)c2F)C2(C(=O)Nc3cc(Cl)ccc32)C12CCCCC2

Found:
1: > 1000 nM; 2: > 100 nM

State recorded IC50 for all listed compounds.
1. NC1CCC(NC2CC2c2ccccc2)CC1 (centres undefined) + CCN1C(C(=O)NC23CCC(C(=O)O)(CC2)CC3)C(c2cccc(Cl)c2F)C2(C(=O)Nc3cc(Cl)ccc32)C12CCCCC2
2. NC(=O)C(=Cn1cnc(-c2cc(C(F)(F)F)cc(C(F)(F)F)c2)n1)c1cncnc1 + CCN1C(C(=O)NC23CCC(C(=O)O)(CC2)CC3)C(c2cccc(Cl)c2F)C2(C(=O)Nc3cc(Cl)ccc32)C12CCCCC2

Found:
1: > 100 nM; 2: 66.2 nM

###

# Tested on: 126254-015-R-J1-PDC complex spheroid growth, % test/control
# Assay name: Anticancer human tumor 126254-015-R-J1-PDC cell line growth inhibition [Asc];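 also: spheroids exposed to compound for seven days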;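 as to viability, T/C: 100% = DMSO vehicle control wells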
# Measurement setup: second compound 0.316 µM; first compound 0.000316 µM; stronger effect = lower value
Observation type: viability, T/C (%)
One number for each entry, in %.

State recorded viability, T/C for all listed molecules.
1. Cn1ncnc1[C@H]1c2n[nH]c(=O)c3cc(F)cc(c23)N[C@@H]1c1ccc(F)cc1 + CNC(C)C(=O)NC1CN(S(=O)(=O)c2cccc(S(=O)(=O)N3CCC4CCC(C(=O)NC(c5ccccc5)c5ccccc5)N4C(=O)C(NC(=O)C(C)NC)C3)c2)CCC2CCC(C(=O)NC(c3ccccc3)c3ccccc3)N2C1=O
2. NC1CCC(NC2CC2c2ccccc2)CC1 (centres undefined) + Cc1c(S(C)(=O)=O)c(-c2cc(F)cc(N3CCN(c4ccc(NS(=O)(=O)c5ccc(NC(CCN6CCC(C(=O)OCCCP(=O)(O)O)CC6)CSc6ccccc6)c(S(=O)(=O)C(F)(F)F)c5)cc4)CC3)c2)c(-c2ccc(Cl)cc2)n1C(C)C
3. Cn1ncnc1[C@H]1c2n[nH]c(=O)c3cc(F)cc(c23)N[C@@H]1c1ccc(F)cc1 + Cc1c(S(C)(=O)=O)c(-c2cc(F)cc(N3CCN(c4ccc(NS(=O)(=O)c5ccc(NC(CCN6CCC(C(=O)OCCCP(=O)(O)O)CC6)CSc6ccccc6)c(S(=O)(=O)C(F)(F)F)c5)cc4)CC3)c2)c(-c2ccc(Cl)cc2)n1C(C)C

Found:
1. 56
2. 74.4
3. 87.7

Query NC1CCC(NC2CC2c2ccccc2)CC1 (centres undefined) + CNC(C)C(=O)NC1CN(S(=O)(=O)c2cccc(S(=O)(=O)N3CCC4CCC(C(=O)NC(c5ccccc5)c5ccccc5)N4C(=O)C(NC(=O)C(C)NC)C3)c2)CCC2CCC(C(=O)NC(c3ccccc3)c3ccccc3)N2C1=O yields viability, T/C of 62.2

The origin of these recorded values is PubChem BioAssay AID1963429.
